Molecular target: FoccCSP-Thr28Ala (Frankliniella occidentalis, UniProt G4Y3X1, T28A)
Assay: Fluorescence (1-NPN) binding and competitive binding assay, FoccCSP mutant
Parameter measured: IC50

compound="CC/C=C\\CC=O [cis-3-hexenal]" parameter_measured=IC50 value="> 100 µM"

====

Molecular target: FoccCSP-Val132Ala (Frankliniella occidentalis, UniProt G4Y3X1, V132A)
Sequence (G4Y3X1 entry or part of it V132A): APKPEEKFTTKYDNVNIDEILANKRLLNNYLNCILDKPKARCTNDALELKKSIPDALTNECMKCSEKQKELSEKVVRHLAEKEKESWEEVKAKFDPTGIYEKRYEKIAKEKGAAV
Assay: Fluorescence (1-NPN) binding and competitive binding assay, FoccCSP mutant (negative control residue)
Parameter measured: IC50

molecule="CC/C=C\\CC=O [cis-3-hexenal]" target_of_assay="FoccCSP-Val132Ala (Frankliniella occidentalis, UniProt G4Y3X1, V132A)" value="28.7 µM"

====

Biological target: FoccCSP-Phe27Ala (Frankliniella occidentalis, UniProt G4Y3X1, F27A)
Assay: Fluorescence (1-NPN) binding and competitive binding assay, FoccCSP mutant
Parameter measured: Kd (µM)

compound="c1ccc(Nc2cccc3ccccc23)cc1 [1-NPN, N-phenyl-1-naphthylamine, reference compound]" target_of_assay="FoccCSP-Phe27Ala (Frankliniella occidentalis, UniProt G4Y3X1, F27A)" parameter_measured=Kd measurement_units=µM value=7.09

====

Target: FintCSP1-Thr28Ala (Frankliniella intonsa, UniProt A0A891LVF4, T28A)
Sequence (A0A891LVF4 entry or part of it T28A): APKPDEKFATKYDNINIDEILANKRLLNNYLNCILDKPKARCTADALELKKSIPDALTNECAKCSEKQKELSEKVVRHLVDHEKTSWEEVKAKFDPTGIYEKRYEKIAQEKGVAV
Assay: Fluorescence (1-NPN) binding and competitive binding assay, FintCSP1 mutant
Parameter measured: Kd (µM)

compound="c1ccc(Nc2cccc3ccccc23)cc1 [1-NPN, N-phenyl-1-naphthylamine, reference compound]" target_of_assay="FintCSP1-Thr28Ala (Frankliniella intonsa, UniProt A0A891LVF4, T28A)" parameter_measured=Kd value=3.85

====

Molecular target: FoccCSP-Lys26Ala (Frankliniella occidentalis, UniProt G4Y3X1, K26A)
Sequence (G4Y3X1 entry or part of it K26A): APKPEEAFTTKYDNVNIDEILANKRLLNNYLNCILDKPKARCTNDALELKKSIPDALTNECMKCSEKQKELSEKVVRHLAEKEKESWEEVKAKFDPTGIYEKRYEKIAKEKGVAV
Experiment: Fluorescence (1-NPN) binding and competitive binding assay, FoccCSP mutant
Procedure: The binding affinity of FintCSP1 and FoccCSP to the fluorescent probe N-phenyl-1-naphthylamine (1-NPN) was tested using a Spectramax M2 fluorescence spectrometer (Molecular Devices, USA) as reported previously. […] The 1-NPN/FintCSP1 or 1-NPN/FoccCSP mixture was excited at 280 nm, and the emission spectra were recorded at 415 nm. The binding constants (Kd) of FintCSP1 or FoccCSP to 1-NPN were calculated by Scatchard analysis using Prism 5 software (GraphPad, La Jolla, CA, USA). […]
pKd: −log10 of the molar value.
Parameter measured: pKd

compound="c1ccc(Nc2cccc3ccccc23)cc1 [1-NPN, N-phenyl-1-naphthylamine, reference compound]" target_of_assay="FoccCSP-Lys26Ala (Frankliniella occidentalis, UniProt G4Y3X1, K26A)" parameter_measured=pKd value=4.76

====

Biological target: FoccCSP-Asp64Ala (Frankliniella occidentalis, UniProt G4Y3X1, D64A)
Sequence (G4Y3X1 entry or part of it D64A): as the sequence (G4Y3X1 entry or part of it K26A) above, with A7K, D45A counted along it
Assay: Fluorescence (1-NPN) binding and competitive binding assay, FoccCSP mutant
pKi: −log10 of the molar value.
Parameter measured: pKi

compound="CC/C=C\\CC=O [cis-3-hexenal]" value=4.21

====

Target: recombinant wild-type FoccCSP (Frankliniella occidentalis, UniProt G4Y3X1)
Sequence (G4Y3X1 entry or part of it): as the sequence (G4Y3X1 entry or part of it V132A) above, with A113V counted along it
Experiment: Fluorescence (1-NPN) binding and competitive binding assay, wild-type FoccCSP
Details: wild-type FoccCSP; displacement of 1-NPN; both 2 μM, pH 7.4
pKi: −log10 of the molar value.
Parameter measured: pKi

compound="CC/C=C\\CC=O [cis-3-hexenal]" value=4.63

====

Target: FintCSP1-Lys26Ala (Frankliniella intonsa, UniProt A0A891LVF4, K26A)
Sequence (A0A891LVF4 entry or part of it K26A): as the sequence (A0A891LVF4 entry or part of it T28A) above, with K7A, A9T counted along it
Test: Fluorescence (1-NPN) binding and competitive binding assay, FintCSP1 mutant
Parameter measured: Kd (µM)

compound="c1ccc(Nc2cccc3ccccc23)cc1 [1-NPN, N-phenyl-1-naphthylamine, reference compound]" value=3.3

====

Biological target: FintCSP1-Val132Ala (Frankliniella intonsa, UniProt A0A891LVF4, V132A)
Sequence (A0A891LVF4 entry or part of it V132A): as the sequence (A0A891LVF4 entry or part of it T28A) above, with A9T, V113A counted along it
Test: Fluorescence (1-NPN) binding and competitive binding assay, FintCSP1 mutant (negative control residue)
Parameter measured: IC50

compound="CC/C=C\\CC=O [cis-3-hexenal]" value="39.2 µM"

====

Molecular target: FintCSP1-Val132Ala (Frankliniella intonsa, UniProt A0A891LVF4, V132A)
Test: Fluorescence (1-NPN) binding and competitive binding assay, FintCSP1 mutant (negative control residue)
pKi: −log10 of the molar value.
Parameter measured: pKi

molecule="CC/C=C\\CC=O [cis-3-hexenal]" value=4.49
